- test_system: ROCK2 (Homo sapiens)
- Sequence (O75116 whole entry): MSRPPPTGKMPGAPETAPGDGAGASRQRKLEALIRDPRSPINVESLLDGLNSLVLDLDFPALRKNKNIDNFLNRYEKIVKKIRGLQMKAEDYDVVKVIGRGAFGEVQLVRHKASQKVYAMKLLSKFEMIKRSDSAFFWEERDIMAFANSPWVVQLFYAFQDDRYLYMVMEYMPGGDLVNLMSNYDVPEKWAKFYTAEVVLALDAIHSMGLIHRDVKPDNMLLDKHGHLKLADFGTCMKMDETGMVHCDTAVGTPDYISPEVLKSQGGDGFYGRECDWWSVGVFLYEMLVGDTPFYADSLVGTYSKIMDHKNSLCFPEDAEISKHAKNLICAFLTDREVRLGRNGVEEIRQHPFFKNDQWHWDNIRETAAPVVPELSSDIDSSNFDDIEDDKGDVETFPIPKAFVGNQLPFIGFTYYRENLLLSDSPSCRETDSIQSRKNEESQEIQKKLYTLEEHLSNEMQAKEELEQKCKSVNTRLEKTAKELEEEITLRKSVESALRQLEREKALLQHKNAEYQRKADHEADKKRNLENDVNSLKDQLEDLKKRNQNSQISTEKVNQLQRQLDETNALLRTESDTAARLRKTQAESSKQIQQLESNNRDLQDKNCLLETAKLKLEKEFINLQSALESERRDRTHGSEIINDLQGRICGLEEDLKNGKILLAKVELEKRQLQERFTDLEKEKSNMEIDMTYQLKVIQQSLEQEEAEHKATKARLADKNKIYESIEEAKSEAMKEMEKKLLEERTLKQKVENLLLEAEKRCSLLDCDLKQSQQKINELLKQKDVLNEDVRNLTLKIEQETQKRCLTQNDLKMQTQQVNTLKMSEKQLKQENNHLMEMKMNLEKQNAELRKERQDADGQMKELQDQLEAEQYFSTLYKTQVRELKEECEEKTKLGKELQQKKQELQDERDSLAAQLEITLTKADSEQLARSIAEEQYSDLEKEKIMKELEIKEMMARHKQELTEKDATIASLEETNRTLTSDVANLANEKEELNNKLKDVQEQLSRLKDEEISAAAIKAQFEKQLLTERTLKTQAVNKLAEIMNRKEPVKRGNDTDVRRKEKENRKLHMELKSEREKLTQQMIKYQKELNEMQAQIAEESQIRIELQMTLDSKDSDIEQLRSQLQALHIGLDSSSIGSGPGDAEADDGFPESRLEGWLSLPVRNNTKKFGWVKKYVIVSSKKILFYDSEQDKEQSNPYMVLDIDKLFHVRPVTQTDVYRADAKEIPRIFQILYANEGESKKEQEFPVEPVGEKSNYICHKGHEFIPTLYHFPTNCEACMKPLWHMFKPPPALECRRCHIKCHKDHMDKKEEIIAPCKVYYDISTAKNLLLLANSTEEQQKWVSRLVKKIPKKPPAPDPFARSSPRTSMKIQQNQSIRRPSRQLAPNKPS
value_type: pIC50
On this scale, pIC50 is minus log10 of a concentration expressed in M (mol/L).

Provide measured pIC50 on ROCK2 (Homo sapiens) for Cc1cc(F)ccc1CN1CCCN(S(=O)(=O)c2cccc3cnccc23)CC1 please.
5.21
